src = paper PMC9753513

- target desc: human dihydrofolate reductase (hDHFR) (Homo sapiens)
- Sequence (P00374 1-187): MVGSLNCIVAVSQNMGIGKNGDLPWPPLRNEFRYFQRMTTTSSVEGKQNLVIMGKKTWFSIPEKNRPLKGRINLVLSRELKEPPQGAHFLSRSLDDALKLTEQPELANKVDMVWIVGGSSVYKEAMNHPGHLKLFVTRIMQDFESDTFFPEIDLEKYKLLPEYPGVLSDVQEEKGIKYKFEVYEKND
observable: pIC50
Lab note — pIC50 values are minus log10 of concentrations in M.

Give its pIC50 value. Item: CN(C)c1ccc(C=NNC(=O)CSc2nc3sc4c(c3c(=O)n2-c2ccccc2)CCCCC4)cc1 [compound 23]
6.55
